Source: PubChem BioAssay (NCATS)

# Tested on: N140
# run description: qHTS profiling for inhibitors of Plasmodium falciparum proliferation (AID 504749); also: nearly all actives have a fitted effect of over 60% in size
# measurement setup: P. falciparum in erythrocytes, SYBR Green DNA, 72 h; series mostly up to 28.7 µM
Inconclusive results are not listed. The source made the active and inactive calls. Calls follow the shape of the dose curve; as a rule, active = well fitted inhibition curve with a large enough effect; inconclusive = small, poorly fitted or top-dose-only effect; inactive = flat fitted curve, though single readings scatter.
Return exactly one item of active, inactive

Observe how each entry below is paired with its result.
{"compound": "C=CC[C@@H]1/C=C(\\C)C[C@H](C)C[C@H](OC)[C@H]2O[C@@](O)(C(=O)C(=O)N3CCCC[C@H]3C(=O)O[C@H](/C(C)=C/[C@@H]3CC[C@@H](O)[C@H](OC)C3)[C@H](C)[C@@H](O)CC1=O)[C@H](C)C[C@@H]2OC", "answer label": "active"}
{"compound": "CC(C)C1=CC2=CC[C@@H]3[C@](C)(CCC[C@@]3(C)C(=O)O)[C@H]2CC1", "answer label": "inactive"}
{"compound": "O=C(O)CCCC/C=C(\\c1ccccc1)c1cccnc1", "answer label": "inactive"}
{"compound": "[O-][N+](=Nc1ccccc1)c1ccccc1", "answer label": "inactive"}
{"compound": "CC(=O)Oc1cccc(C(=O)O)c1OC(C)=O", "answer label": "inactive"}

Lab log entry: O=c1n(CC2CO2)c(=O)n(CC2CO2)c(=O)n1CC1CO1 (stereo unspecified) — outcome as called in the assay?
inactive

Hello, I am checking results. What call was entered for `C=CCOc1ccc(CC(=O)O)cc1Cl` ?
inactive

Assay result, entry `OCCOCCOCCO` — outcome?
inactive

# outcome recorded in this test, key = `CCCCC[C@H](O)/C=C/[C@@H]1[C@H]2C/C(=C/CCCC(=O)O)O[C@H]2C[C@H]1O`
inactive

I would be grateful if you could indicate the recorded call for `O=C1c2ccccc2C(=O)C1c1ccc(Cl)cc1` .
inactive

For `COc1ccc(/C=C/C(=O)O)cc1` , which call appears in the assay record?
inactive

###

# run description: Cell Viability - LYMP2-016 (AID 984);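 also: cells exposed to compound for 24 hours at 37 °C; nearly all actives have a fitted effect of over 55% in size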
# measurement setup: LYMP2-016 lymphoblastoid cell viability, qHTS; series mostly up to 92.2 µM
# Description: NIH Chemical Genomics Center [NCGC] NIH Molecular Libraries Screening Centers Network [MLSCN] National Institutes of Environmental Health Sciences [NIEHS] National Toxicology Program [NTP] We have developed a 1536-well cell-based assay for quantitative high throughput screening (qHTS) against a number of cell lines to determine in vitro cytotoxicity of small molecules. […] 8. Detection; Luminescence; Viewlux plate reader […]
Records with an inconclusive call do not appear. Calls of active or inactive are those of the source. The call rests on the fitted dose curve; in most records, active means well fitted cell-killing curve with a large enough effect; inconclusive means small, poorly fitted or top-dose-only effect; inactive means flat fitted curve, though single readings scatter.
Select the correct class. Options are class 1 (active), class 0 (inactive) and nothing else.

Reference set (7 entries):
{"compound": "C=C1C(CCl)(CCl)C2(Cl)C(Cl)C(Cl)C1(Cl)C2(Cl)Cl (stereo not drawn)", "answer label": "class 1"}
{"compound": "Nc1ccc(N=Nc2ccccc2)c(N)n1", "answer label": "class 0"}
{"compound": "O.O.O.O.O.O.O.O=S(=O)([O-])[O-].[Co+2]", "answer label": "class 0"}
{"compound": "CC1=CCC2CC1C2(C)C (stereo not drawn)", "answer label": "class 0"}
{"compound": "CCCCO", "answer label": "class 0"}
{"compound": "CCCCC", "answer label": "class 0"}
{"compound": "OC[C@H]1O[C@@H]2O[C@H]3[C@H](O)[C@@H](O)[C@@H](O[C@H]4[C@H](O)[C@@H](O)[C@@H](O[C@H]5[C@H](O)[C@@H](O)[C@@H](O[C@H]6[C@H](O)[C@@H](O)[C@@H](O[C@H]7[C@H](O)[C@@H](O)[C@@H](O[C@H]1[C@H](O)[C@H]2O)O[C@@H]7CO)O[C@@H]6CO)O[C@@H]5CO)O[C@@H]4CO)O[C@@H]3CO", "answer label": "class 0"}

Okay, now this compound:
Please indicate how the test categorized `C/C=C/C=C/C(=O)O` .
class 0
